These measurements were taken from patent US20250073177A1.

- assay_overview: saRNA encapsulation in LNP, Quant-IT RiboGreen assay
- Assay type: physicochemical
- condition_description: LNP with firefly luciferase saRNA, RiboGreen with or without Triton X-100
observed_property: Encapsulation (%)

molecule	unit	observed_result
CCCCCCC(CCCC)C(=O)NCCN1CCN(CCN(CCCCOC(=O)C(CCCC)CCCCCC)CCCCOC(=O)C(CCCC)CCCCCC)CC1 (stereo not shown)	%	98.64
CCCCCCC(CCCC)C(=O)OCCCCN(CCCCOC(=O)C(CCCC)CCCCCC)CCN1CCN(CCOC(=O)C(CCCC)CCCCCC)CC1 (stereo not shown)	%	99.04
CCCCCCCCCCC(O)CN(CCN1CCN(CCN(CC(O)CCCCCCCCCC)CC(O)CCCCCCCCCC)CC1)CCN(CC(O)CCCCCCCCCC)CC(O)CCCCCCCCCC (stereo not shown) [Compound C12-200, reference compound]	%	100.49
CCCCCCCCCCCCCCOC(=O)CCN(CCC(=O)OCCCCCCCCCCCCCC)CCN1CCN(CCN(CCC(=O)OCCCCCCCCCCCCCC)CCC(=O)OCCCCCCCCCCCCCC)CC1 [Comparator 1, reference compound]	%	99.03

###

- assay_overview: Body weight of mice after injection of LNP-formulated luciferase saRNA
- Assay type: in vivo
- condition_description: Day 7, intramuscular, 1 μg luciferase saRNA in LNP
observed_property: Weight (g)
Just the number in g, nothing appended.

compound	observed_result
CCCCCCCCCCC(O)CN(CCN1CCN(CCN(CC(O)CCCCCCCCCC)CC(O)CCCCCCCCCC)CC1)CCN(CC(O)CCCCCCCCCC)CC(O)CCCCCCCCCC (stereo not shown) [Compound C12-200, reference compound]	28.97
CCCCCCCCCCCCCCOC(=O)CCN(CCC(=O)OCCCCCCCCCCCCCC)CCN1CCN(CCN(CCC(=O)OCCCCCCCCCCCCCC)CCC(=O)OCCCCCCCCCCCCCC)CC1 [Comparator 1, reference compound]	27.09
CCCCCCC(CCCC)C(=O)OCCCCN(CCCCOC(=O)C(CCCC)CCCCCC)CCN1CCN(CCOC(=O)C(CCCC)CCCCCC)CC1 (stereo not shown)	28.69

q: Entry CCCCCCC(CCCC)C(=O)NCCN1CCN(CCN(CCCCOC(=O)C(CCCC)CCCCCC)CCCCOC(=O)C(CCCC)CCCCCC)CC1 (stereo not shown) has what Weight?
a: 28.40

###

- assay_overview: Body weight of mice after injection of LNP-formulated luciferase saRNA
- Assay type: in vivo
- condition_description: Day 5, intramuscular, 1 μg luciferase saRNA in LNP
Below, each entry is listed alongside its reported Weight.
# unit: g | format: bare number

Worked examples follow.
compound	Weight [g]
CCCCCCCCCCC(O)CN(CCN1CCN(CCN(CC(O)CCCCCCCCCC)CC(O)CCCCCCCCCC)CC1)CCN(CC(O)CCCCCCCCCC)CC(O)CCCCCCCCCC (stereo not shown) [Compound C12-200, reference compound]	28.98
CCCCCCCCCCCCCCOC(=O)CCN(CCC(=O)OCCCCCCCCCCCCCC)CCN1CCN(CCN(CCC(=O)OCCCCCCCCCCCCCC)CCC(=O)OCCCCCCCCCCCCCC)CC1 [Comparator 1, reference compound]	27.59
CCCCCCC(CCCC)C(=O)OCCCCN(CCCCOC(=O)C(CCCC)CCCCCC)CCN1CCN(CCOC(=O)C(CCCC)CCCCCC)CC1 (stereo not shown)	29.04

Next, consider the following compound.
q: Recorded Weight of CCCCCCC(CCCC)C(=O)NCCN1CCN(CCN(CCCCOC(=O)C(CCCC)CCCCCC)CCCCOC(=O)C(CCCC)CCCCCC)CC1 (stereo not shown) , please.
a: 28.86
